assay summary: NCI Yeast Anticancer Drug Screen. Data for the sgs1 mgt1 strain (AID 161)
experimental conditions: S. cerevisiae sgs1 mgt1 strain, at 5.0 µM (retest, dose inferred, filed as 0.5)
The panel holds about 79,000 compounds, 15% with a hit somewhere; the sample as a whole holds those more often. Activity calls are given as the source filed them. Cut-off read from the data, not from the text of the source: active = growth inhibition above about 70%; inactive = the rest.
Outcomes you can answer with include only these: Y for active, N for inactive

Consider the worked cases shown below.
CCC[CH2][Sn]1([CH2]CCC)[O]c2ccccc2[O]1	N
CC(=O)O[C@@H]1[C@@H](O)[C@H]2O[C@@H]3C=C(C)C(=O)[C@@H](O)[C@]3(CO)[C@]1(C)[C@]21CO1	N
C=CCc1cc(Cl)ccc1OC(=O)N(C)C	N

Here's the next entry for you.
Query: I'd appreciate the recorded outcome for N#C[S-].[Ce+3].c1cnc2c(c1)ccc1cccnc12.c1cnc2c(c1)ccc1cccnc12.c1cnc2c(c1)ccc1cccnc12 from this test.
Response: Y

Data provenance is PubChem BioAssay (NCI).
